A collection of binders and their measured kon
molecular target: T1, Histidine-tagged human PD-1 protein (hPD-1-His) (human, UniProt Q15116 25-170, limits assumed); experiment: SPR (Biacore T200), antibody captured on Protein A chip, hPD-1-His analyte, 1:1 fit
T1 construct: Soluble analyte in SPR; not shown: histidine tag
T1 sequence (Q15116 25-170 limits assumed): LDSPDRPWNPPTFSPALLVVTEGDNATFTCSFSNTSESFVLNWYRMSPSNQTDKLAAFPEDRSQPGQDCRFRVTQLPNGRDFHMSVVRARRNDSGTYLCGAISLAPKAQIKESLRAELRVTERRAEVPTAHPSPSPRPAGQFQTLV
Return type: number; implicit unit M⁻¹ s⁻¹.

For orientation, consider the following solved cases.
[
  {
    "Binder": "3F1-H3K1-IgG4-S228P (antibody, V domains shown, Humanized; human IgG4 constant domains with S228P (EU numbering)) VH: QVQLQQSGAEVAKPGASVKMSCKASGYTFTSYWMHWVKQRPGQGLEWIGYINPSTGYTEYNQKFKDRATLTADTSTSTAYMELSSLRSEDTAVYYCARGVRYYFDYWGQGTLLTVSS VL: DIVMTQSPDSLAVSLGERATISCKSSQSLLNSRTRKNYLAWYQQKPGQSPKLLIYWASTRESGVPDRFSGSGSGTDFTLTISSVQAEDVAVYYCKQSYNLLTFGQGTKLELK",
    "kon / M⁻¹ s⁻¹": 4530
  },
  {
    "Binder": "3F1-H4K3-IgG4-S228P (antibody, V domains shown, Humanized; human IgG4 constant domains with S228P (EU numbering)) VH: QVQLQQSGAEVAKPGASVKMSCKASGYTFTSYWMHWVKQRPGQGLEWIGYINPSTGYTEYNQKFKDRATLTADKSTSTAYMELSSLTSEDTAVYYCARGVRYYFDYWGQGTLLTVSS VL: DIVMTQSPSSLAVSAGERVTMSCKSSQSLLNSRTRKNYLAWYQQKPGQSPKLLIYWASTRESGVPDRFSGSGSGTDFTLTISSVQAEDVAVYYCKQSYNLLTFGQGTKLELK",
    "kon / M⁻¹ s⁻¹": 4060
  }
]

Entry 1A7-H3K1-IgG4-S228P (antibody, V domains shown, Humanized; human IgG4 constant domains with S228P (EU numbering)) VH: EVKLVESGGGLVQPGGSLRLSCAASGFTFSSYSMSWVRQAPGKRLEWVAHISSGGSSTYYPDTVKGRFTISRDNSKNTLYLQMNSLRAEDTAMYYCTRQFYYGSSFWYFDVWGAGTTVTVSS VL: DNVLTQSPATLSLSPGERATLSCKASQSVDFDGDSYMNWYQQKPGQPPRLLIYAASNLESGIPARFSGSGPGTDFTLTISSLEPEDFATYYCQQSNEDPPTFGGGTKVEIK — recorded kon = 66200
